test-target: S-adenosylmethionine synthase isoform type-2 (Rattus norvegicus, UniProt P18298)
test-description: Inhibitory constant against rat kidney Methionine adenosyltransferase II
Hi there, I'd appreciate the recorded log10 of Ki for every entry that follows.
Scale type: logarithmic (base 10). Underlying Ki unit: µM.

Ask | Consider the compound `Nc1ncnc2c1ncn2[C@@H]1O[C@H](COP(=O)(O)CP(=O)(O)OP(=O)(O)O)[C@@H](O)[C@H]1O` . State its measured log10 of Ki.
Reply | 2.48

Ask | Consider the compound Nc1ncnc2c1nc(SCCC(N)C(=O)O)n2C1O[C@H](COP(=O)(O)OP(=O)(O)OP(=O)(O)O)[C@@H](O)[C@H]1O (stereo not given in full) . State its measured log10 of Ki.
Reply | 2.72

Ask | Consider the compound `Nc1ncnc2c1ncn2[C@@H]1O[C@H](COP(=O)(O)OP(=O)(O)NP(=O)(O)O)[C@@H](O)[C@H]1O` . State its measured log10 of Ki.
Reply | 0.74

Ask | Consider the compound CCCCNc1ncnc2c1ncn2C1O[C@H](COP(=O)(O)OP(=O)(O)OP(=O)(O)O)[C@@H](O)[C@H]1O (stereo not given in full) . State its measured log10 of Ki.
Reply | 2.72

Ask | Consider the compound `CSc1nc(N)c2ncn([C@@H]3O[C@H](COP(=O)(O)OP(=O)(O)OP(=O)(O)O)[C@@H](O)[C@H]3O)c2n1` . State its measured log10 of Ki.
Reply | 2.78

====

test-target: S-adenosylmethionine synthetase (MAT 1 and MAT 2) (Rattus norvegicus, UniProt P13444+P18298)
test-description: Competitive inhibition of rat methionine adenosyltransferase, activity expressed as Ki
Assay type: protein assay
Hi there, I'd appreciate the recorded Ki for every entry that follows.
In your response, put the unit directly after the numeric value.

Ask | Consider the compound `CO[C@@H]1[C@H](O)[C@@H](COP(=O)(O)OP(=O)(O)OP(=O)(O)O)O[C@H]1n1cnc2c(N)ncnc21` . State its measured Ki.
Reply | 170 µM

Ask | Consider the compound CCCC(OP(=O)(O)OP(=O)(O)OP(=O)(O)O)[C@H]1O[C@@H](n2cnc3c(N)ncnc32)[C@H](O)[C@@H]1O (some centres undefined) . State its measured Ki.
Reply | 37 µM

Ask | Consider the compound `CO[C@H]1[C@@H](O)[C@H](n2cnc3c(N)ncnc32)O[C@@H]1COP(=O)(O)OP(=O)(O)OP(=O)(O)O` . State its measured Ki.
Reply | 180 µM

Ask | Consider the compound CC(OP(=O)(O)OP(=O)(O)OP(=O)(O)O)[C@H]1O[C@@H](n2cnc3c(N)ncnc32)[C@H](O)[C@@H]1O (some centres undefined) . State its measured Ki.
Reply | 80 µM

====

test-target: S-adenosylmethionine synthase isoform type-2 (Rattus norvegicus)
test-description: Inhibitory constant against rat kidney Methionine adenosyltransferase II, activity expressed as Ki
measured-attribute: Ki (µM)
Answer format: numeric, µM implied, no suffix.

Ask | Look up S-adenosylmethionine synthase isoform type-2 (Rattus norvegicus) data: Ki of CC(OP(=O)(O)OP(=O)(O)OP(=O)(O)O)[C@H]1O[C@@H](n2cnc3c(N)ncnc32)[C@H](O)[C@@H]1O (some centres undefined) , then report it.
Reply | 190

Ask | Look up S-adenosylmethionine synthase isoform type-2 (Rattus norvegicus) data: Ki of `CO[C@H]1[C@@H](O)[C@H](n2cnc3c(N)ncnc32)O[C@@H]1COP(=O)(O)OP(=O)(O)OP(=O)(O)O` , then report it.
Reply | 170

Ask | Look up S-adenosylmethionine synthase isoform type-2 (Rattus norvegicus) data: Ki of CCCC(OP(=O)(O)OP(=O)(O)OP(=O)(O)O)[C@H]1O[C@@H](n2cnc3c(N)ncnc32)[C@H](O)[C@@H]1O (some centres undefined) , then report it.
Reply | 48

Ask | Look up S-adenosylmethionine synthase isoform type-2 (Rattus norvegicus) data: Ki of `CO[C@@H]1[C@H](O)[C@@H](COP(=O)(O)OP(=O)(O)OP(=O)(O)O)O[C@H]1n1cnc2c(N)ncnc21` , then report it.
Reply | 140

====

Hi there, I'd appreciate the recorded Ki for every entry that follows.
test-target: S-adenosylmethionine synthetase (MAT 1 and MAT 2) (Rattus norvegicus, UniProt P13444+P18298)
test-description: […] rat Methionine adenosyltransferase was reported
Assay type: protein assay
Answer format: numeric, µM implied, no suffix.

Ask | Consider the molecule `CSc1nc(N)c2ncn([C@@H]3O[C@H](COP(=O)(O)OP(=O)(O)OP(=O)(O)O)[C@@H](O)[C@H]3O)c2n1` . State its measured Ki.
Reply | 110

Ask | Consider the molecule `Nc1ncnc2c1ncn2[C@@H]1O[C@H](COP(=O)(O)OP(=O)(O)NP(=O)(O)O)[C@@H](O)[C@H]1O` . State its measured Ki.
Reply | 4

Ask | Consider the molecule `Nc1ncnc2c1ncn2[C@@H]1O[C@H](COP(=O)(O)CP(=O)(O)OP(=O)(O)O)[C@@H](O)[C@H]1O` . State its measured Ki.
Reply | 340

Ask | Consider the molecule `CSc1nc2c(N)ncnc2n1[C@@H]1O[C@H](COP(=O)(O)OP(=O)(O)OP(=O)(O)O)[C@@H](O)[C@H]1O` . State its measured Ki.
Reply | 530
